Cited source for all entries: PubChem BioAssay

- RUN DESCRIPTION: osmotic lysis modulators in infected erythrocytes, primary screen, PSAC antagonist project, cell-based, P. falciparum Indochina, OD700, 3 h (AID 1156)
- TEST SETTINGS: higher = more signal, called active from +8 up or from −8 down
z-score below 0.6 gives 0.0; z-score at or above it gives 1.0.

INSERT INTO assay_data (compound, class) VALUES
  ('COC(=O)C=C(CC(O)c1cccc(Cl)c1)OC (configuration not stated)', 0.0),
  ('CCCC=C(CCC)[C@@H](NS(=O)(=O)c1cccs1)c1ccc(C(=O)OC)cc1', 1.0),
  ('O=C1NC(=O)C2C1C=CC(C(O)c1ccccc1)N2Nc1ccc(Cl)cc1Cl (configuration not stated)', 0.0),
  ('CCCC#C[Si](O[C@H](CC)c1cn([C@H](CO)Cc2ccccc2)nn1)(C(C)C)C(C)C', 0.0),
  ('N#Cc1ccc(NN2C(C(O)c3c(F)cccc3Cl)C=CC3C(=O)N(c4ccccc4)C(=O)C32)cc1 (configuration not stated)', 1.0),
  ('[N-]=[N+]=NCc1ccccc1C[C@]1(C(=O)O)N=C(c2ccc(OCCCO)cc2)O[C@H]1c1ccccc1N=[N+]=[N-]', 1.0),
  ('O=C1c2ccccc2[C@@]2(Cc3ccccc3N(CC(F)(F)F)C2=O)[C@H](c2ccc(CO)cc2)N1Cc1ccccc1Cl', 1.0),
  ('CN1C(=O)C2C=CC(C(O)C3CCCCC3)N(Nc3ccc([N+](=O)[O-])cc3[N+](=O)[O-])C2C1=O (configuration not stated)', 0.0),
  ('CN(C)C(=O)[C@@]1(Cc2ccccc2)N=C(c2ccc(OCCCO)cc2)O[C@H]1c1ccccc1N=[N+]=[N-]', 1.0),
  ('O=C1NC(=O)C2C1C=CC(C(O)C(c1ccccc1)c1ccccc1)N2Nc1ccc(Cl)cc1Cl (configuration not stated)', 0.0),
  ('CC(C)C[C@@H]1NC(=O)[C@H]2C[C@@H](C(=O)NCCCCCCN(C)C)[C@@H](c3ccc(O)cc3)N2C1=O', 0.0),
  ('CCCCN1CC=CC23O[C@@H]4C=CCOC(=O)[C@@H]4[C@H]2C(=O)N(CCCCCO)[C@@H]3C1=O (some centres not stated)', 1.0),
  ('O=C1C2C=CC(C(O)C3CCCCC3)N(Nc3ccc([N+](=O)[O-])cc3)C2C(=O)N1c1ccccc1 (configuration not stated)', 1.0),
  ('CCCCCN1CC=CC23O[C@@H]4/C=C\CCCOC(=O)C4[C@H]2C(=O)N(CCCO)[C@@H]3C1=O (some centres not stated)', 0.0),
  ('CS(=O)(=O)CCOC(=O)C1=CC(CCCO)=CC(c2ccc(CN3CCCC3)cc2)N(Cc2cc3c(cc2Br)OCO3)C=C1C(=O)OCCS(C)(=O)=O (configuration not stated)', 1.0),
  ('C=CC[C@@]1(C(N)=O)N=C(c2ccc(OCCCO)cc2)O[C@@H]1c1ccccc1CN=[N+]=[N-]', 1.0),
  ('COc1cc(CO)cc(I)c1O[C@H]1C=C(C(=O)NCCO)C[C@@H](N(CCN2CCOCC2)C(=O)C2CCOC2)[C@@H]1O (some centres not stated)', 1.0),
  ('CCCCC(O)C1C=CC2C(=O)N(c3ccccc3)C(=O)C2N1Nc1ccccc1F (configuration not stated)', 0.0),
  ('CC(C)(C)OC(=O)CC[C@@]12N=C(c3ccc(OCCCO)cc3)O[C@@H]1c1ccccc1N(CCS(=O)(=O)c1ccccc1)C2=O', 1.0),
  ('CCCCC=C[C@@H](NC(=O)Oc1cccc(C(F)(F)F)c1)c1ccccc1', 0.0),
  ('CN1C(=O)C2C=CC(C(O)C3CC=CCC3)N(NC(=O)OC(C)(C)C)C2C1=O (configuration not stated)', 0.0),
  ('CCN(CC)c1ccc(N2CC=CC34O[C@@H]5/C=C\CCCOC(=O)C5[C@H]3C(=O)N(CCO)[C@@H]4C2=O)cc1 (some centres not stated)', 0.0),
  ('COc1cc2c(cc1OC)CN(C(=O)[C@H]1[C@@H]3C(=O)O[C@@H](c4ccccc4)[C@@H](c4ccccc4)N3[C@@H](c3ccc(O)cc3)[C@]13C(=O)Nc1ccc(C#CCNC(N)=O)cc13)CC2', 0.0),
  ('COc1ccc(C(=O)O[C@H]2CC[C@]3(C)C4=C(CCC3C2(C)C)[C@]2(C)CC[C@H]([C@H](C)CCCC(C)C)[C@@]2(C)CC4)cc1 (some centres not stated)', 0.0),
  ('COCC(=C=CC[C@@H](O)c1ccccc1OCCO)C[C@@H](O)c1cc(Cl)cc(Cl)c1O', 0.0),
  ('O=C1OCCC/C=C\[C@H]2OC34C=CCN(c5ccc6ccccc6c5)C(=O)[C@H]3N(CCCCCCO)C(=O)[C@@H]4C12 (some centres not stated)', 0.0),
  ('CCCC[C@@H]1C[C@H]1[C@@H](NC(=O)c1ccco1)c1ccc(Cl)cc1', 0.0),
  ('O=C(NCc1ccccc1)[C@@]1(Cc2ccccc2)N=C(c2ccc(OCCCO)cc2)O[C@H]1c1ccccc1', 1.0),
  ('C=CCN1C(=O)[C@]2(O[C@H](CCO)[C@@H]([Si](C)(C)c3ccc(OC)cc3)[C@@H]2C)c2cc(N3CCCCC3=O)ccc21', 0.0),
  ('CN1C(=O)C2C=CC(C(O)C3=C[C@H]4C[C@@H](C3)C4(C)C)N(Nc3ccccc3)C2C1=O (some centres not stated)', 0.0),
  ('CN1C(=O)C2C=CC(C(O)c3ccc(-c4ccccc4)s3)N(N(c3ccccc3)c3ccccc3)C2C1=O (configuration not stated)', 1.0),
  ('CN(C)CCCNC(=O)[C@@]1(c2ccc([N+](=O)[O-])cc2)CC(=O)N(C2CCCCC2)[C@@H]1c1ccc(CO)cc1I', 0.0);
